// reported inhibition for each item listed
biological target: Beta-galactoside alpha-2,6-sialyltransferase 1 (Homo sapiens) (UniProt P15907); assay: Inhibition of recombinant human ST6Gal I at 10 uM incubated for 1 hrs in the presence of CMP-Neu5Ac as donor and LacNAc as acceptor by luminescence based CMP-Glo assay relative to control
The reply should contain only the number, in %.

For orientation, consider the following solved cases.
MOLECULE | TEST VALUE
O=c1ccn([C@@H]2O[C@H](COCc3cn(C(c4cccc(Oc5ccccc5)c4)P(=O)(O)O)nn3)[C@@H](O)[C@H]2O)c(=O)[nH]1 (stereo in doubt; 13a-(s)) | 62
O=c1ccn([C@@H]2O[C@H](COCc3cn(C(c4ccc(F)c(Oc5ccccc5)c4)P(=O)(O)O)nn3)[C@@H](O)[C@H]2O)c(=O)[nH]1 (stereo in doubt; 13c-(s)) | 57

O=c1ccn([C@@H]2O[C@H](COCc3cn(C(c4cccc(OC5CCCC5)c4)P(=O)(O)O)nn3)[C@@H](O)[C@H]2O)c(=O)[nH]1 (stereo in doubt; 13b-(l)) yielded inhibition of 10

---

// reported inhibition for each item listed
target: Beta-galactoside alpha-2,6-sialyltransferase 1 (Homo sapiens) (UniProt P15907); assay: Inhibition of recombinant human ST6Gal I at 10 uM incubated for 1 hrs in the presence of CMP-Neu5Ac as donor and LacNAc as acceptor by luminescence based CMP-Glo assay relative to control
Respond with a number, then the unit of measure.

For orientation, consider the following solved cases.
COMPOUND | MEASUREMENT TARGET | inhibition
O=c1ccn([C@@H]2O[C@H](COCc3cn(C(c4csc5ccccc45)P(=O)(O)O)nn3)[C@@H](O)[C@H]2O)c(=O)[nH]1 (stereo in doubt; 13g-(s)) | Beta-galactoside alpha-2,6-sialyltransferase 1 (Homo sapiens) (UniProt P15907) | 25%
O=c1ccn([C@@H]2O[C@H](COCc3cn(C(c4csc5ccccc45)P(=O)(O)O)nn3)[C@@H](O)[C@H]2O)c(=O)[nH]1 (stereo in doubt; 13g-(l)) | Beta-galactoside alpha-2,6-sialyltransferase 1 (Homo sapiens) (UniProt P15907) | 21%

Result for O=c1ccn([C@@H]2O[C@H](COCc3cn(C(c4ccc(F)cc4)P(=O)(O)O)nn3)[C@@H](O)[C@H]2O)c(=O)[nH]1 (single isomer, unassigned) , tested on Beta-galactoside alpha-2,6-sialyltransferase 1 (Homo sapiens) (UniProt P15907), inhibition: 44%

---

Target: Beta-galactoside alpha-2,6-sialyltransferase 1 (Homo sapiens) (UniProt P15907)
Sequence (whole entry): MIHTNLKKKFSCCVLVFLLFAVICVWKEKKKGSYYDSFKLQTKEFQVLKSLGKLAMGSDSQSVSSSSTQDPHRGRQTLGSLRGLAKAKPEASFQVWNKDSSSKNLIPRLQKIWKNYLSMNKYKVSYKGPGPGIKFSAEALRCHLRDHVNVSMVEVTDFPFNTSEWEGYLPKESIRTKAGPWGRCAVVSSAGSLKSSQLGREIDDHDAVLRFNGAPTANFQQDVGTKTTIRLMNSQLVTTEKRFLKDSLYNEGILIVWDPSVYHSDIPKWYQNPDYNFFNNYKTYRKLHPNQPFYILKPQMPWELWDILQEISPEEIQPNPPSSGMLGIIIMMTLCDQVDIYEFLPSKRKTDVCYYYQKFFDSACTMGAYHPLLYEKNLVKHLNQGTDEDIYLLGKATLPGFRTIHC
Test: Ratio of Km for Substrate activity at recombinant human ST6Gal I to Ki for inhibition of recombinant human ST6Gal I at 10 uM incubated for 1 hrs in the presence of CMP-Neu5Ac as donor and LacNAc as acceptor
MEASURED PROPERTY: Ratio

COMPOUND | TEST VALUE
O=c1ccn([C@@H]2O[C@H](COCc3cn(C(c4ccc(F)c(Oc5ccccc5)c4)P(=O)(O)O)nn3)[C@@H](O)[C@H]2O)c(=O)[nH]1 (stereo in doubt; 13c-(s)) | 6

Result for O=c1ccn([C@@H]2O[C@H](COCc3cn(C(c4cccc(Oc5ccccc5)c4)P(=O)(O)O)nn3)[C@@H](O)[C@H]2O)c(=O)[nH]1 (stereo in doubt; 13a-(s)) , tested on Beta-galactoside alpha-2,6-sialyltransferase 1 (Homo sapiens) (UniProt P15907), Ratio: 1

Result for O=c1ccn([C@@H]2O[C@H](COCc3cn(C(c4cccc(Oc5ccccc5)c4)P(=O)(O)O)nn3)[C@@H](O)[C@H]2O)c(=O)[nH]1 (stereo in doubt; 13a-(l)) , tested on Beta-galactoside alpha-2,6-sialyltransferase 1 (Homo sapiens) (UniProt P15907), Ratio: 0.7

Result for O=c1ccn([C@@H]2O[C@H](COCc3cn(C(c4ccc(F)c(Oc5ccccc5)c4)P(=O)(O)O)nn3)[C@@H](O)[C@H]2O)c(=O)[nH]1 (stereo in doubt; 13c-(l)) , tested on Beta-galactoside alpha-2,6-sialyltransferase 1 (Homo sapiens) (UniProt P15907), Ratio: 1.1

Result for O=c1ccn([C@@H]2O[C@H](COCc3cn(C(c4cccc(OC(F)(F)C(F)F)c4)P(=O)(O)O)nn3)[C@@H](O)[C@H]2O)c(=O)[nH]1 (single isomer, unassigned) , tested on Beta-galactoside alpha-2,6-sialyltransferase 1 (Homo sapiens) (UniProt P15907), Ratio: 5.6

Result for O=c1ccn([C@@H]2O[C@H](COCc3cn(C(c4cccc(OC(F)(F)C(F)F)c4)P(=O)(O)O)nn3)[C@@H](O)[C@H]2O)c(=O)[nH]1 (stereo in doubt; 13f-(l)) , tested on Beta-galactoside alpha-2,6-sialyltransferase 1 (Homo sapiens) (UniProt P15907), Ratio: 11

---

molecular target: Beta-galactoside alpha-2,6-sialyltransferase 1 (Homo sapiens); test: Inhibition of recombinant human ST6Gal I at 10 uM incubated for 1 hrs in the presence of CMP-Neu5Ac as donor and LacNAc as acceptor by luminescence based CMP-Glo assay relative to control
// reported inhibition for each item listed
The reply should contain only the number, in %.

For orientation, consider the following solved cases.
MOLECULE | MEASUREMENT TARGET | inhibition (%)
O=c1ccn([C@@H]2O[C@H](COCc3cn(C(c4ccc(F)cc4)P(=O)(O)O)nn3)[C@@H](O)[C@H]2O)c(=O)[nH]1 (stereo in doubt; 13d-(l)) | Beta-galactoside alpha-2,6-sialyltransferase 1 (Homo sapiens) | 45
O=c1ccn([C@@H]2O[C@H](COCc3cn(C(c4ccc(F)c(Oc5ccccc5)c4)P(=O)(O)O)nn3)[C@@H](O)[C@H]2O)c(=O)[nH]1 (stereo in doubt; 13c-(l)) | Beta-galactoside alpha-2,6-sialyltransferase 1 (Homo sapiens) | 59
O=c1ccn([C@@H]2O[C@H](COCc3cn(C(c4cccc(C(F)(F)F)c4)P(=O)(O)O)nn3)[C@@H](O)[C@H]2O)c(=O)[nH]1 (single isomer, unassigned; form 2) | Beta-galactoside alpha-2,6-sialyltransferase 1 (Homo sapiens) | 39
O=c1ccn([C@@H]2O[C@H](COCc3cn(C(c4cccc(OC(F)(F)C(F)F)c4)P(=O)(O)O)nn3)[C@@H](O)[C@H]2O)c(=O)[nH]1 (stereo in doubt; 13f-(l)) | Beta-galactoside alpha-2,6-sialyltransferase 1 (Homo sapiens) | 78

With those in mind, consider the next molecule.
Result for O=c1ccn([C@@H]2O[C@H](COCc3cn(C(c4cccc(OC(F)(F)C(F)F)c4)P(=O)(O)O)nn3)[C@@H](O)[C@H]2O)c(=O)[nH]1 (single isomer, unassigned) , tested on Beta-galactoside alpha-2,6-sialyltransferase 1 (Homo sapiens), inhibition: 65
